Origin of the recorded values: patent US9187471B2

Parameter inhibition at 0.1 µM: see the listing below.
- assay.target: human recombinant serotonin (5-Hydroxytryptamine) 5-HT6 receptor (Homo sapiens)
- Construct: expressed in transfected cells; host or cells: HeLa
- run.description: Serotonin 5-HT6 radioligand binding ([3H]LSD)
- condition.summary: compound at 0.1 μM; read-out: Inhibition of ligand binding, Serotonin 5-HT6 (percent inhibition of specific binding)
Lab book: enter the figure in %, no units written.

# count of solved cases: 8
Cc1ccc2c(c1)c1c(n2-c2ccc3ncccc3c2)CCN(C)C1 [Compound 24] ... 12
Cc1ccc2c(c1)c1c(n2-c2ccoc2)CCN(C)C1 [Compound 15] ... 51
Cc1ccc2c(c1)c1c(n2-c2cscc2-c2ccc3c(ccn3C)c2)CCN(C)C1 [Compound 33] ... 60
Cc1ccc2c(c1)c1c(n2-c2ccccc2-c2cc3ccccc3s2)CCN(C)C1 [Compound No. 103] ... 20
Cc1ccc2c(c1)c1c(n2-c2cnc3ccccc3c2)CCN(C)C1 [Compound No. 88] ... 4
Cc1ccc2c(c1)c1c(n2-c2ccc(-c3cccnc3)cn2)CCN(C)C1 [Compound No. 133] ... 10
Cc1ccc2c(c1)c1c(n2-c2cccc(-c3ccc4c(ccn4C)c3)c2)CCN(C)C1 [Compound 53] ... 11
Cc1ccc2c(c1)c1c(n2-c2cscc2-c2ccc(S(C)(=O)=O)cc2)CCN(C)C1 [Compound No. 76] ... 14

Request: Looking for the measured inhibition at 0.1 µM of CN1CCc2c(c3cc(Cl)ccc3n2-c2ccsc2)C1 [Compound 29] , can you help?
Response: 101

###

- assay.target: human recombinant serotonin (5-Hydroxytryptamine) 5-HT6 receptor (Homo sapiens, UniProt P50406)
- Construct: expressed in transfected cells; host or cells: HeLa
- Sequence (P50406 whole entry): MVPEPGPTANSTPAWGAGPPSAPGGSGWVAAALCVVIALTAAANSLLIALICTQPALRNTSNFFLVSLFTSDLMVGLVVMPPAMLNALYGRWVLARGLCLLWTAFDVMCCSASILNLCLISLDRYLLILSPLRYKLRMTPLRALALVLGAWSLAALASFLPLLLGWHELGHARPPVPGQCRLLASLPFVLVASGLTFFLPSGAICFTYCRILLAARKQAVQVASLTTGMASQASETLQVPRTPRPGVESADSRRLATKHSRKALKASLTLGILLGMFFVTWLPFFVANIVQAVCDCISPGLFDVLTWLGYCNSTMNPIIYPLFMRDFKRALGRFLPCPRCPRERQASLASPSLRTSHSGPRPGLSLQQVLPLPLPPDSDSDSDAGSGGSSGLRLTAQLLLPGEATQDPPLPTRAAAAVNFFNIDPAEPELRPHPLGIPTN
- run.description: Serotonin 5-HT6 radioligand binding ([3H]LSD)
- condition.summary: compound at 0.1 μM; read-out: Inhibition of ligand binding, Serotonin 5-HT6 (percent inhibition of specific binding)
Parameter inhibition at 0.1 µM: see the listing below.
Lab book: enter the figure in %, no units written.

# count of solved cases: 3
Cc1ccc2c(c1)c1c(n2-c2cccc(-c3cnc(N(C)C)nc3)c2)CCN(C)C1 [Compound 42] ... 17
Cc1ccc2c(c1)c1c(n2-c2cscc2-c2cncc3ccccc23)CCN(C)C1 [Compound 34] ... 11
Cc1ccc2c(c1)c1c(n2-c2ccccc2-c2ccc(S(N)(=O)=O)cc2)CCN(C)C1 [Compound No. 163] ... 13

Now consider the entry below.
Request: Looking for the measured inhibition at 0.1 µM of Cc1ccc2c(c1)c1c(n2-c2ccccc2)CCN(C)C1 [Compound 1] , can you help?
Response: 63

###

- assay.target: human recombinant serotonin (5-Hydroxytryptamine) 5-HT7 receptor (Homo sapiens)
- Construct: expressed in transfected cells; host or cells: CHO
- Sequence (P34969 whole entry): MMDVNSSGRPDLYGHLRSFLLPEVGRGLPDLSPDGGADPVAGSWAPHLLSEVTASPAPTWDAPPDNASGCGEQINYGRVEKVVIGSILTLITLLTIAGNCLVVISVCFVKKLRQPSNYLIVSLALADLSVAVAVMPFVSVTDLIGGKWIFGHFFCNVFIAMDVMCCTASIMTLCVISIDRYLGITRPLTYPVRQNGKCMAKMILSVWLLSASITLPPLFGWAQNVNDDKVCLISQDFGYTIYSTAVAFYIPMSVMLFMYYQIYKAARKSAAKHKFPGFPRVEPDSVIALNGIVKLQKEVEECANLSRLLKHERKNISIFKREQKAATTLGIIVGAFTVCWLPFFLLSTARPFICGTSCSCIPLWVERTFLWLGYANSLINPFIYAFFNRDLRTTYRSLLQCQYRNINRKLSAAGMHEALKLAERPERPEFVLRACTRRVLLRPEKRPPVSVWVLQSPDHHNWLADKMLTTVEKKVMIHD
- run.description: Serotonin 5-HT7 radioligand binding ([3H]LSD)
- condition.summary: compound at 0.1 μM; read-out: Inhibition of ligand binding, Serotonin 5-HT7 (percent inhibition of specific binding)
I would appreciate it if you labelled entries 1 when inhibition at 0.1 µM is 60% or higher, otherwise -1.

Would you please look over these solved cases?
Cc1ccc2c(c1)c1c(n2-c2cnc(C)c3ccccc23)CCN(C)C1 ... -1
Cc1ccc2c(c1)c1c(n2-c2ccc(-c3cccnc3)cn2)CCN(C)C1 ... -1
Cc1ccc2c(c1)c1c(n2-c2cccs2)CCN(C)C1 ... 1
Cc1ccc2c(c1)c1c(n2-c2ccccc2-c2ccc(F)cc2)CCN(C)C1 ... 1
Cc1ccc2c(c1)c1c(n2-c2ccccc2-c2cccc3[nH]ncc23)CCN(C)C1 ... -1

Request: Record Cc1ccc2c(c1)c1c(n2-c2ccccc2-c2ccnn2C)CCN(C)C1 ; criterion: inhibition at 0.1 µM no lower than 60%. Met?
Response: -1

Request: Record Cc1ccc2c(c1)c1c(n2-c2ccc(-c3cnc(N(C)C)nc3)cn2)CCN(C)C1 ; criterion: inhibition at 0.1 µM no lower than 60%. Met?
Response: -1

Request: Record COc1ccc(-c2cscc2-n2c3c(c4cc(C)ccc42)CN(C)CC3)cc1 ; criterion: inhibition at 0.1 µM no lower than 60%. Met?
Response: 1

###

- assay.target: human recombinant histamine H1 receptor (Homo sapiens, UniProt P35367)
- Construct: expressed in transfected cells; host or cells: CHO-K1
- Sequence (P35367 whole entry): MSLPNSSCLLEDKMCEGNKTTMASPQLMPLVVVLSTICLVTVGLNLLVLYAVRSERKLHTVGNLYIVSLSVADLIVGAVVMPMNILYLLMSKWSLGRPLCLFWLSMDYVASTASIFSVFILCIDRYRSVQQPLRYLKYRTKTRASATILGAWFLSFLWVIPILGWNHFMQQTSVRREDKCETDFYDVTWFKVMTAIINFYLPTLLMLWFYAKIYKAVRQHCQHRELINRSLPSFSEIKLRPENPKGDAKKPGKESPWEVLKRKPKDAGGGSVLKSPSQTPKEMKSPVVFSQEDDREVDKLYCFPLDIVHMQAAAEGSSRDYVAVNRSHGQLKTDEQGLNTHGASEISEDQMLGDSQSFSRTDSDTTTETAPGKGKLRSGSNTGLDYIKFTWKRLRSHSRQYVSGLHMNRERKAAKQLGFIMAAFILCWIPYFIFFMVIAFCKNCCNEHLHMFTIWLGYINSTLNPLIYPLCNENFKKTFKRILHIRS
- run.description: Histamine H1 radioligand binding ([3H]Pyrilamine)
- condition.summary: read-out: Histamine H1 Binding (1 μM), percent inhibition of specific binding; compound at 1 μM; 1.2 nM [3H]Pyrilamine
I would appreciate it if you labelled entries Met when inhibition at 1 µM is 20% or higher, otherwise Not met.

Would you please look over these solved cases?
Cc1ccc2c(c1)c1c(n2-c2ccc(-c3ccc(S(N)(=O)=O)cc3)cn2)CCN(C)C1 ... Not met
CNC(=O)c1cccc(-c2ccc(-n3c4c(c5cc(C)ccc53)CN(C)CC4)nc2)c1 ... Not met
Cc1ccc2c(c1)c1c(n2-c2ccccc2-c2cccn2C)CCN(C)C1 ... Met

Next, consider the following compound.
Request: Record Cc1ccc2c(c1)c1c(n2-c2cccc(-c3cncc4ccccc34)c2)CCN(C)C1 ; criterion: inhibition at 1 µM no lower than 20%. Met?
Response: Met

###

- assay.target: human recombinant serotonin (5-Hydroxytryptamine) 5-HT7 receptor (Homo sapiens)
- Construct: expressed in transfected cells; host or cells: CHO
- run.description: Serotonin 5-HT7 radioligand binding ([3H]LSD)
- condition.summary: compound at 0.1 μM; read-out: Inhibition of ligand binding, Serotonin 5-HT7 (percent inhibition of specific binding)
I would appreciate it if you labelled entries true (1) when inhibition at 0.1 µM is 30% or higher, otherwise false (0).

Cc1ccc2c(c1)c1c(n2-c2cccc(-c3sccc3C)c2)CCN(C)C1 ... true (1)
Cc1ccc2c(c1)c1c(n2-c2ccc(C(F)(F)F)nc2)CCN(C)C1 ... false (0)
Cc1csc(-c2cccc(-n3c4c(c5cc(C)ccc53)CN(C)CC4)c2)c1 ... false (0)
Cc1ccc2c(c1)c1c(n2-c2cccc(-c3cncc4ccccc34)c2)CCN(C)C1 ... false (0)

Request: Record Cc1ccc2c(c1)c1c(n2-c2ccccc2-c2cc3ccccc3s2)CCN(C)C1 ; criterion: inhibition at 0.1 µM no lower than 30%. Met?
Response: true (1)

Request: Record Cc1ccc2c(c1)c1c(n2-c2ccc3cnccc3c2)CCN(C)C1 ; criterion: inhibition at 0.1 µM no lower than 30%. Met?
Response: true (1)

Request: Record CN1CCc2c(c3cc(Cl)ccc3n2-c2cscc2-c2ccncc2)C1 ; criterion: inhibition at 0.1 µM no lower than 30%. Met?
Response: true (1)

Request: Record Cc1ccc2c(c1)c1c(n2-c2cccc(-c3ccc(C)s3)c2)CCN(C)C1 ; criterion: inhibition at 0.1 µM no lower than 30%. Met?
Response: true (1)

###

Parameter inhibition at 0.1 µM: see the listing below.
- assay.target: human recombinant dopamine D2L receptor (Homo sapiens, UniProt P14416)
- Construct: expressed in transfected cells; host or cells: CHO
- Sequence (P14416 whole entry): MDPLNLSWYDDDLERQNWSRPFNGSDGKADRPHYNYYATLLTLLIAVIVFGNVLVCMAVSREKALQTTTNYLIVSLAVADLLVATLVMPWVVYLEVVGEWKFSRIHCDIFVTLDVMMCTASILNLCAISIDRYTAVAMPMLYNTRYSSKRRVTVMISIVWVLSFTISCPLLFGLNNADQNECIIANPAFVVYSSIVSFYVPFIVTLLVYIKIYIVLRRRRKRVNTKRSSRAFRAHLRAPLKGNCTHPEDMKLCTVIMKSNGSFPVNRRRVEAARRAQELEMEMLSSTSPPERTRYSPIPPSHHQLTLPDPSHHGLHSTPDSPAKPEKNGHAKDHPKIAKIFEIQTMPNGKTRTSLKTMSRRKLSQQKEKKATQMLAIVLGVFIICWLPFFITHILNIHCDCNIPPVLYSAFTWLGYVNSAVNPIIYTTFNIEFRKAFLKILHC
- run.description: Dopamine D2L radioligand binding ([3H]Spiperone)
- condition.summary: read-out: Dopamine D2L (0.1 μM), percent inhibition of specific binding; compound at 0.1 μM; 0.16 nM [3H]Spiperone
Lab book: enter the figure in %, no units written.

Cc1ccc2c(c1)c1c(n2-c2cscc2-c2ccnn2C)CCN(C)C1 [Compound No. 150] ... 5
CNC(=O)c1ccc(-c2cscc2-n2c3c(c4cc(C)ccc42)CN(C)CC3)cc1 [Compound No. 155] ... 1

Request: Looking for the measured inhibition at 0.1 µM of Cc1ccc2c(c1)c1c(n2-c2cscc2C(=O)N(C)C)CCN(C)C1 [Compound No. 152] , can you help?
Response: 4

Request: Looking for the measured inhibition at 0.1 µM of Cc1ccc2c(c1)c1c(n2-c2cccc(-c3ccc(S(N)(=O)=O)cc3)c2)CCN(C)C1 [Compound No. 158] , can you help?
Response: 1

Request: Looking for the measured inhibition at 0.1 µM of Cc1cc(C)c2c(c1)c1c(n2-c2cscc2-c2ccncc2)CCN(C)C1 [Compound No. 149] , can you help?
Response: 5

Request: Looking for the measured inhibition at 0.1 µM of CNC(=O)c1cccc(-c2cscc2-n2c3c(c4cc(C)ccc42)CN(C)CC3)c1 [Compound No. 154] , can you help?
Response: 1

Request: Looking for the measured inhibition at 0.1 µM of Cc1ccc2c(c1)c1c(n2-c2ccc3nc(C)ccc3c2)CCN(C)C1 [Compound No. 157] , can you help?
Response: -6

Request: Looking for the measured inhibition at 0.1 µM of Cc1ccc2c(c1)c1c(n2-c2ccc(-c3ccc(C)nc3)cn2)CCN(C)C1 [Compound No. 156] , can you help?
Response: -7

Request: Looking for the measured inhibition at 0.1 µM of Cc1ccc2c(c1)c1c(n2-c2cscc2-c2cc3ccccc3s2)CCN(C)C1 [Compound No. 151] , can you help?
Response: 1
